Origin of measurements: paper PMC6154694

experiment: Liver microsomal stability, mouse; format: in vitro ADME, CD1 mouse; conditions: CD1, pooled liver microsomes, pH 7.4, substrate 10 µM, protein 0.5 mg/mL, n = 2, read-out: % Remaining at 30 min
assay_endpoint: remaining at 0.5 h, 10 µM (%)
Your answer is read as %, so omit the unit and give the number.

| molecule | unit_of_measurement | quantitative_result |
| --- | --- | --- |
| CCCCC[C@H](O)CC(=O)CCc1ccc(O)c(OC)c1 | % | 30 |
| CCCCC/C=C/C(=O)CCc1ccc(O)c(OC)c1 | % | 3 |
| CCCCCCCCCC(O)CC(=O)CCc1ccc(O)c(OC)c1 (stereo not shown) [10G, 10-gingerol] | % | 10 |

Let's switch to this molecule now.
Would you kindly share the measured remaining at 0.5 h, 10 µM for CCCCCCCC(O)CC(=O)CCc1ccc(O)c(OC)c1 (stereo not shown) ?
3
